method_notes: Pharmacokinetic data in CD-1 mice after oral administration
Format: in vivo
condition_summary: mouse, 10 mg/kg molar equivalent to Cmpd. A (nominal), serum, analyte: dosed derivative (DV)
measured_parameter: Tmax (min)
One number for each entry, in min.

CC(C)=CCOC1(c2ccc(Cl)cc2)c2ccccc2C2=NCCN21 (stereo not shown): 15

Please look at the items below and tell me Tmax for each one, in order.
1. COc1ccc(COC2(c3ccc(Cl)cc3)c3ccccc3C3=NCCN32)cc1 (stereo not shown)
2. Clc1ccc(C2(OCc3ccccc3)c3ccccc3C3=NCCN32)cc1 (stereo not shown)
3. CN1CCN(C(=O)N2CCN=C2c2ccccc2C(=O)c2ccc(Cl)cc2)CC1
4. C=CCOC1(c2ccc(Cl)cc2)c2ccccc2C2=NCCN21 (stereo not shown)

## Output
15
15
15
30

Please look at the items below and tell me Tmax for each one, in order.
1. COCCOC1(c2ccc(Cl)cc2)c2ccccc2C2=NCCN21 (stereo not shown)
2. CC(C)=CCC/C(C)=C/CC/C(C)=C/COC1(c2ccc(Cl)cc2)c2ccccc2C2=NCCN21 (stereo not shown)
3. O=C(c1ccc(Cl)cc1)c1ccccc1C1=NCCN1C(=O)c1ccc2c(c1)OCO2

## Output
1. 15
2. 30
3. 15

Please look at the items below and tell me Tmax for each one, in order.
1. CC(C)(C(=O)N1CCN=C1c1ccccc1C(=O)c1ccc(Cl)cc1)C(=O)N1CCN=C1c1ccccc1C(=O)c1ccc(Cl)cc1
2. O=C(c1ccc(Cl)cc1)c1ccccc1C1=NCCN1C(=O)c1ccccc1
3. CC(C)=CCC/C(C)=C/COC1(c2ccc(Cl)cc2)c2ccccc2C2=NCCN21 (stereo not shown)
4. COCCOCCOCCOC1(c2ccc(Cl)cc2)c2ccccc2C2=NCCN21 (stereo not shown)
5. Cc1ccc(C(=O)N2CCN=C2c2ccccc2C(=O)c2ccc(Cl)cc2)cc1
6. CC(C)C(NC(=O)OC(C)(C)C)C(=O)N1CCN=C1c1ccccc1C(=O)c1ccc(Cl)cc1 (stereo not shown)

## Output
1. 15
2. 15
3. 15
4. 30
5. 15
6. 15

* * *

method_notes: Pharmacokinetic data in CD-1 mice after oral administration
Type: in vivo
condition_summary: mouse, serum, Table 7: CD-1 mice, nominal dose 5.10 mg/kg Cmpd. A or 6.57-8.40 mg/kg DV salt, analyte: dosed derivative (DV)
Answer each item with its documented AUC(0-t).
One number for each entry, in ng·h/mL.

Some solved cases for reference:
Clc1ccc(COC2(c3ccc(Cl)cc3)c3ccccc3C3=NCCN32)cc1 (stereo not drawn): 174
FC(F)(F)c1ccc(/C=C/COC2(c3ccc(Cl)cc3)c3ccccc3C3=NCCN32)cc1 (stereo not drawn): 677
FC(F)(F)c1ccc(COC2(c3ccc(Cl)cc3)c3ccccc3C3=NCCN32)cc1 (stereo not drawn): 183
CC(C)/C=C/COC1(c2ccc(Cl)cc2)c2ccccc2C2=NCCN21 (stereo not drawn): 27.6

Please look at the items below and tell me AUC(0-t) for each one, in order.
1. COc1ccc(COC2(c3ccc(Cl)cc3)c3ccccc3C3=NCCN32)cc1OC (stereo not drawn)
2. Clc1ccc(C2(OCC3OCCO3)c3ccccc3C3=NCCN32)cc1 (stereo not drawn)

## Output
1. 12.7
2. 2.04

* * *

method_notes: Pharmacokinetic data in CD-1 mice after oral administration
Assay type: in vivo
condition_summary: mouse, serum, Table 7: CD-1 mice, nominal dose 5.10 mg/kg Cmpd. A or 6.57-8.40 mg/kg DV salt, analyte: dosed derivative (DV)
measured_parameter: Cmax (ng/mL)
Give bare numbers, in ng/mL.

Some solved cases for reference:
FC(F)(F)c1ccc(/C=C/COC2(c3ccc(Cl)cc3)c3ccccc3C3=NCCN32)cc1 (stereo not drawn): 187
Clc1ccc(C2(OCC3OCCO3)c3ccccc3C3=NCCN32)cc1 (stereo not drawn): 4.27
Clc1ccc(COC2(c3ccc(Cl)cc3)c3ccccc3C3=NCCN32)cc1 (stereo not drawn): 53.3
COc1ccc(COC2(c3ccc(Cl)cc3)c3ccccc3C3=NCCN32)cc1OC (stereo not drawn): 17.8
FC(F)(F)c1ccc(COC2(c3ccc(Cl)cc3)c3ccccc3C3=NCCN32)cc1 (stereo not drawn): 56.1

## Input Any idea what Cmax was measured for CC(C)/C=C/COC1(c2ccc(Cl)cc2)c2ccccc2C2=NCCN21 (stereo not drawn) ?
## Output 25.7

* * *

method_notes: Pharmacokinetic data in CD-1 mice after oral administration
Type: in vivo
condition_summary: mouse, 10 mg/kg molar equivalent to Cmpd. A (nominal), serum, analyte: dosed derivative (DV)
measured_parameter: half-life (h)
Numbers only, in h.

Some solved cases for reference:
O=C(c1ccc(Cl)cc1)c1ccccc1C1=NCCN1C(=O)c1ccccc1 [II-1]: 1.67
COCCOC1(c2ccc(Cl)cc2)c2ccccc2C2=NCCN21 (stereo not drawn) [Compound I-4]: 1.8

# next compound below
## Input Any idea what half-life was measured for Clc1ccc(C2(OCc3ccccc3)c3ccccc3C3=NCCN32)cc1 (stereo not drawn) [Compound I-1] ?
## Output 1.6

* * *

method_notes: Pharmacokinetic data in CD-1 mice after oral administration
Assay type: in vivo
condition_summary: mouse, 10 mg/kg molar equivalent to Cmpd. A (nominal), serum, analyte: dosed derivative (DV)
Answer each item with its documented AUC(0-t).
Numbers only, in ng·h/mL.

Some solved cases for reference:
Clc1ccc(C2(OCc3ccc4c(c3)OCO4)c3ccccc3C3=NCCN32)cc1 (stereo not shown) [Compound I-7]: 307
CC(C)COC1(c2ccc(Cl)cc2)c2ccccc2C2=NCCN21 (stereo not shown) [Compound I-10]: 94.6
COc1ccc(C(=O)N2CCN=C2c2ccccc2C(=O)c2ccc(Cl)cc2)cc1 [II-2]: 611
CC(C)C(NC(=O)OC(C)(C)C)C(=O)N1CCN=C1c1ccccc1C(=O)c1ccc(Cl)cc1 (stereo not shown): 56.5
COc1ccc(COC2(c3ccc(Cl)cc3)c3ccccc3C3=NCCN32)cc1 (stereo not shown) [Compound I-2]: 260
CC(C)(C(=O)N1CCN=C1c1ccccc1C(=O)c1ccc(Cl)cc1)C(=O)N1CCN=C1c1ccccc1C(=O)c1ccc(Cl)cc1 [III-1]: 366

## Input Any idea what AUC(0-t) was measured for COCCOCCOCCOC1(c2ccc(Cl)cc2)c2ccccc2C2=NCCN21 (stereo not shown) [Compound I-12] ?
## Output 68.9

* * *

Answer each item with its documented half-life.
method_notes: Pharmacokinetic data in CD-1 mice after oral administration
Type: in vivo
condition_summary: mouse, 10 mg/kg molar equivalent to Cmpd. A (nominal), serum, analyte: dosed derivative (DV)
Give bare numbers, in h.

Some solved cases for reference:
CC(C)(C(=O)N1CCN=C1c1ccccc1C(=O)c1ccc(Cl)cc1)C(=O)N1CCN=C1c1ccccc1C(=O)c1ccc(Cl)cc1 [III-1]: 1.2
COc1ccc(C(=O)N2CCN=C2c2ccccc2C(=O)c2ccc(Cl)cc2)cc1 [II-2]: 1.36
CC(C)=CCOC1(c2ccc(Cl)cc2)c2ccccc2C2=NCCN21 (centres unmarked) [Compound I-9]: 1.42
O=C(c1ccc(Cl)cc1)c1ccccc1C1=NCCN1C(=O)c1ccc2c(c1)OCO2 [II-4]: 1.2

# next molecule below
## Input Any idea what half-life was measured for Cc1ccc(C(=O)N2CCN=C2c2ccccc2C(=O)c2ccc(Cl)cc2)cc1 [II-3] ?
## Output 2.2

* * *

Answer each item with its documented Tmax.
method_notes: Pharmacokinetic data in CD-1 mice after oral administration
Type: in vivo
condition_summary: mouse, 10 mg/kg molar equivalent to Cmpd. A (nominal), serum, analyte: dosed derivative (DV)
Answers are plain numbers, in min.

Some solved cases for reference:
CCOC1(c2ccc(Cl)cc2)c2ccccc2C2=NCCN21 (centres unmarked) [Compound I-8]: 30
CC(C)COC1(c2ccc(Cl)cc2)c2ccccc2C2=NCCN21 (centres unmarked) [Compound I-10]: 15

Please look at the items below and tell me Tmax for each one, in order.
1. Clc1ccc(C2(OCc3ccc4c(c3)OCO4)c3ccccc3C3=NCCN32)cc1 (centres unmarked) [Compound I-7]
2. COC1(c2ccc(Cl)cc2)c2ccccc2C2=NCCN21 (centres unmarked) [Compound I-6]
3. COc1ccc(C(=O)N2CCN=C2c2ccccc2C(=O)c2ccc(Cl)cc2)cc1 [II-2]

## Output
15
30
30
